All values here come from PubChem BioAssay AID1963870.

System: 292921-168-R-J2-PDC KRAS tumor spheroid viability;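 also: drug exposure lasted seven days after spheroids formed for three days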
run.description: Anticancer human tumor 292921-168-R-J2-PDC patient-derived pancreatic carcinoma cell line growth inhibition [KRAS2]
details: curve of first compound; second compound 0.1 µM; spheroids with HUVEC and MSC

compound	IC50
CC(=O)Nc1cccc(-n2c(=O)n(C3CC3)c(=O)c3c(Nc4ccc(I)cc4F)n(C)c(=O)c(C)c32)c1 + CC1OCC2(CCN(c3cnc(Sc4ccnc(N)c4Cl)c(N)n3)CC2)C1N	< 0.0001 µM
Cn1ncnc1[C@H]1c2n[nH]c(=O)c3cc(F)cc(c23)N[C@@H]1c1ccc(F)cc1 + CNCc1ccccc1-c1csc(C(C)Nc2nc(C)nc3cc(OC)c(OC)cc23)c1	> 0.1 µM
COC(=O)c1ccc2c(C(=Nc3ccc(N(C)C(=O)CN4CCN(C)CC4)cc3)c3ccccc3)c(O)[nH]c2c1 + C=CC(=O)N1CCN(c2nc(=O)n(-c3c(C)ccnc3C(C)C)c3nc(-c4c(O)cccc4F)c(F)cc23)C(C)C1	< 0.0316 µM
CC(=O)OC12COC1CC(O)C1(C)C(=O)C(O)C3=C(C)C(OC(=O)C(O)C(NC(=O)OC(C)(C)C)c4ccccc4)CC(O)(C(OC(=O)c4ccccc4)C21)C3(C)C (stereo not drawn) + COc1cc2nc(C)nc(NC(C)c3cc(N)cc(C(F)(F)F)c3)c2cc1OC1CCOC1	< 0.01 µM
CC(=O)OC12COC1CC(O)C1(C)C(=O)C(O)C3=C(C)C(OC(=O)C(O)C(NC(=O)OC(C)(C)C)c4ccccc4)CC(O)(C(OC(=O)c4ccccc4)C21)C3(C)C (stereo not drawn) + CNCc1ccccc1-c1csc(C(C)Nc2nc(C)nc3cc(OC)c(OC)cc23)c1	< 0.01 µM
CN(C)C/C=C/C(=O)Nc1cc2c(Nc3ccc(F)c(Cl)c3)ncnc2cc1O[C@H]1CCOC1 + CNCc1ccccc1-c1csc(C(C)Nc2nc(C)nc3cc(OC)c(OC)cc23)c1	> 0.1 µM
O=C(c1cc(Cc2n[nH]c(=O)c3ccccc23)ccc1F)N1CCN(C(=O)C2CC2)CC1 + COc1cc2nc(C)nc(NC(C)c3cc(N)cc(C(F)(F)F)c3)c2cc1OC1CCOC1	> 10 µM
COc1cc(Nc2ncc3c(n2)-c2ccc(Cl)cc2C(c2c(F)cccc2OC)=NC3)ccc1C(=O)O + COc1cc2nc(C)nc(NC(C)c3cc(N)cc(C(F)(F)F)c3)c2cc1OC1CCOC1	< 0.0316 µM
